Data origin, for the record: the supplement of paper PMC7877785

In this section we review reported self-splicing fitness (ln) values for a set of sequences.
- test_name: self-splicing fitness, log relative to wild type (ln ratio); higher = more splicing; Tetrahymena group I intron in knt gene, E. coli kanamycin selection, DiMSum; sequences stand for … in CUCUCU…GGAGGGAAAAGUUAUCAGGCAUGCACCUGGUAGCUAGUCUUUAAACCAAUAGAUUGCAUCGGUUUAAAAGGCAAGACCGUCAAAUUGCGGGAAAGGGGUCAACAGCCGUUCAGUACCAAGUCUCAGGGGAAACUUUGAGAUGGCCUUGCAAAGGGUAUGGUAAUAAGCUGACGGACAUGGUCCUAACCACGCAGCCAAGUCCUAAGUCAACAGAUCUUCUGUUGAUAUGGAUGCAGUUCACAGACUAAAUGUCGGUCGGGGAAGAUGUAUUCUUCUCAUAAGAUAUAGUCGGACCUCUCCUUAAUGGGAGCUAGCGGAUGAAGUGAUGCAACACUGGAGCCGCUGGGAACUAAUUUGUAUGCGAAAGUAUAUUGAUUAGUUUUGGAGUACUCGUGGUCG;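 further: selection with 25 µg/mL kanamycin versus none on LB agar overnight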
- experimental_conditions: 37 °C
Number, no unit, nothing else.

# input sequence: AUGUAGCAAUAUUACGGACU ; wanted: its self-splicing fitness (ln)
-0.231

What about CAUAAGCAAUAUUACGCACU ?
-0.81

Next sequence up: GUGUAGCAAUAUUACGGGCA
-1.29

How about this sequence: CGGUAGCAAUAUUACGAAGU
-1.85

Now consider CUGGAGCAAUAUUACGGCGC and answer again.
-1.02

Now try GGAAAGCAAUAUUACGCAAU .
-0.77

Now this one: CGUAAGCAAUAUUACGCUUC
-2.52

Same question, UUACAGCAAUAUUACGCGCG this time
0.0717

Try this sequence next: UGGUAGCAAUAUUACGGGGC
-2.37

Please give the result for GUAAAGCAAUAUUACGCAAA too.
-0.594

UCGGAGCAAUAUUACGGGUG ?
-2.94

Okay, and AGAUAGCAAUAUUACGUGUG ?
-0.626

Record: CAAAAGCAAUAUUACGUGGU
-2.49

Further, for UGCAAGCAAUAUUACGUGAA ?
-1.03

###

Listed here: items and their measured self-splicing fitness (ln).
- test_name: self-splicing fitness, log relative to wild type (ln ratio); higher = more splicing; Tetrahymena group I intron in knt gene, E. coli kanamycin selection, DiMSum; sequences stand for … in CUCUCU…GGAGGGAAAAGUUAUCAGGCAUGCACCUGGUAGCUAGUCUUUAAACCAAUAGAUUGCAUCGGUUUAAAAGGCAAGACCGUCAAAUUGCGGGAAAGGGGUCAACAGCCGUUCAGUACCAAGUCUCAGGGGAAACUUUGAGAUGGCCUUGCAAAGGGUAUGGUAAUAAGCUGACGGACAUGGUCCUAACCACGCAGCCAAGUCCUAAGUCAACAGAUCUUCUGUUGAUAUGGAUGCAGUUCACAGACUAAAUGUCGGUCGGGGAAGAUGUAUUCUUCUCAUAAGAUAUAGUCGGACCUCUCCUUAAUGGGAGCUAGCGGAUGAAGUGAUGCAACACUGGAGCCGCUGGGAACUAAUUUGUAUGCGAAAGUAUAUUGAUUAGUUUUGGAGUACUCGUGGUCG
- experimental_conditions: 30 °C
Give the figure by itself; no unit, no explanation.

AAACAGCAAUAUUACGUUUA ... -2.11
CGGUAGCAAUAUUACGUACG ... -1.3
CACUAGCAAUAUUACGGGUA ... -0.856
GACAAGCAAUAUUACGUGGU ... -3.63
ACCAAGCAAUAUUACGCCAC ... -1.48
GGUCAGCAAUAUUACGUGGA ... -1.82
GAGGAGCAAUAUUACGAAGG ... -4.59

Fill blank: measured self-splicing fitness (ln) of the sequence UCGCAGCAAUAUUACGUCGU is ____.
-1.95

###

Listed next: entries and their corresponding self-splicing fitness (ln).
- test_name: self-splicing fitness, log relative to wild type (ln ratio); higher = more splicing; Tetrahymena group I intron in knt gene, E. coli kanamycin selection, DiMSum; sequences stand for … in CUCUCU…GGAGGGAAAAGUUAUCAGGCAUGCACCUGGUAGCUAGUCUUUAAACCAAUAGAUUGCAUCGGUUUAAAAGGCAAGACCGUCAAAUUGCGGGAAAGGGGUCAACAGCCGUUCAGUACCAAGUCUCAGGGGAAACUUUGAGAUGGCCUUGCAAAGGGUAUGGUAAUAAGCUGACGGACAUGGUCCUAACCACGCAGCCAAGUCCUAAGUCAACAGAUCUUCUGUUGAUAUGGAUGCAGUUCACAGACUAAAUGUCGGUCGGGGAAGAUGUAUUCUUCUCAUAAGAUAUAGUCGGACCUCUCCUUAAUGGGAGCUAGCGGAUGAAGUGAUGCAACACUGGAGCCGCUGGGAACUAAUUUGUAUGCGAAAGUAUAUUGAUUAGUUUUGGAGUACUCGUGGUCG
- experimental_conditions: 37 °C
I only need the number, thanks.

UGAGAGCAAUAUUACGGCGU ... -2.81
GUGGAGCAAUAUUACGAUCG ... -3.31
CGAAAGCAAUAUUACGGGCG ... -0.157

Which self-splicing fitness (ln) value belongs to UUCUAGCAAUAUUACGACAC ?
-1.71

Another sequence to check: AAGAAGCAAUAUUACGAUCG
-0.674

# repeat for AUAUAGCAAUAUUACGCUAA
-0.768

Another sequence to check: ACAAAGCAAUAUUACGCGCG
-0.453

Now consider AGGAAGCAAUAUUACGUUCG and answer again.
-0.266

Would you mind doing GGGUAGCAAUAUUACGCGAC as well?
-1.62

Then UUAAAGCAAUAUUACGCGUG ?
-0.26

Same again, this time with UUCGAGCAAUAUUACGAAGG
-1.62

Continue with GGUCAGCAAUAUUACGAUGG
-0.299

// next record AGGAAGCAAUAUUACGCUUG
-0.302

What about this sequence? CCUCAGCAAUAUUACGCGUA
-3.37

Proceed to UCCUAGCAAUAUUACGAUAU
-2.72

Another sequence: ACCCAGCAAUAUUACGAAGA
-1.36

###

- test_name: self-splicing fitness, log relative to wild type (ln ratio); higher = more splicing; Tetrahymena group I intron in knt gene, E. coli kanamycin selection, DiMSum; sequences stand for … in CUCUCU…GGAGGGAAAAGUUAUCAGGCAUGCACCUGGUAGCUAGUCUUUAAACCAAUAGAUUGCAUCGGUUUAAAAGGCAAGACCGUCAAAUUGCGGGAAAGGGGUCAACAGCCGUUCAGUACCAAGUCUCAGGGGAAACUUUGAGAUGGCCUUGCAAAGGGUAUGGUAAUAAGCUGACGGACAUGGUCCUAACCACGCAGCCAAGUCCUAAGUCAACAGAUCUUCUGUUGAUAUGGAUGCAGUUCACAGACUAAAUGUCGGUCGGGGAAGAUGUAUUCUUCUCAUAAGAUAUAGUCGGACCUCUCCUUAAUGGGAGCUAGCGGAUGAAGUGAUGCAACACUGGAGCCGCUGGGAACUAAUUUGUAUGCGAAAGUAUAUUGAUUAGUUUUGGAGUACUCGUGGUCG
- experimental_conditions: 37 °C
Quick reference for self-splicing fitness (ln) among some sequences

// known answers, use as guide
AAUGAGCAAUAUUACGGAGG ... -2.45
ACGAAGCAAUAUUACGCUUU ... -2.63
GGAUAGCAAUAUUACGAUAU ... -0.583
UCUAAGCAAUAUUACGGGGC ... -2.21

Please look up its self-splicing fitness (ln): UAGCAGCAAUAUUACGUAGU
-2.48

One more sequence: UAAAAGCAAUAUUACGUUUU
-2.82

AAUGAGCAAUAUUACGAUAU , same question.
-0.861

Here is the next sequence: UUAUAGCAAUAUUACGAAUG
-0.727

Next record, please: UACAAGCAAUAUUACGGCAA
-0.0888

Try the sequence UCGAAGCAAUAUUACGAUAA
-1.13

Now the same for UCAGAGCAAUAUUACGGGGC
-2.42

Now this one: GUAUAGCAAUAUUACGUGAA
-1.67

Next: UGUGAGCAAUAUUACGAUUA
-1.53

###

- test_name: self-splicing fitness, log relative to wild type (ln ratio); higher = more splicing; Tetrahymena group I intron in knt gene, E. coli kanamycin selection, DiMSum; sequences stand for … in CUCUCU…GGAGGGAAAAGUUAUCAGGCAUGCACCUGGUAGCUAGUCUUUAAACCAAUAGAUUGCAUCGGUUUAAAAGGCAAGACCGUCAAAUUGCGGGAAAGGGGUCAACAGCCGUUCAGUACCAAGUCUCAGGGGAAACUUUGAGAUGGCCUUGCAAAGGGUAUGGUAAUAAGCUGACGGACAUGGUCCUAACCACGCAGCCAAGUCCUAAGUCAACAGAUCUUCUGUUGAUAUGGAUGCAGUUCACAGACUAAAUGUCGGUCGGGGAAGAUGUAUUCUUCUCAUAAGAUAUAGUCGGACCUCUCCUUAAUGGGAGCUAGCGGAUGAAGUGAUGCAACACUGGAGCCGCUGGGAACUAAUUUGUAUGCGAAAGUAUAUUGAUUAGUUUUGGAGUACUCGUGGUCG
- experimental_conditions: 30 °C
Classification field: enter yes for self-splicing fitness (ln) values not below -2, no for values below it.

CCCGAGCAAUAUUACGCUGU ... no
AGGAAGCAAUAUUACGGGAU ... no
UCGUAGCAAUAUUACGGCGG ... no
UGAAAGCAAUAUUACGCGUA ... yes
ACGAAGCAAUAUUACGAAGU ... no
CGUUAGCAAUAUUACGGGCU ... yes
ACAUAGCAAUAUUACGCAAA ... no
GUACAGCAAUAUUACGCAUU ... no

Is the recorded value of self-splicing fitness (ln) equal to or greater than -2 for this sequence? UUGAAGCAAUAUUACGCUCG
yes
